Reference source for all entries: the supplement of paper PMC12042874

Entries and their amyloid nucleation score values follow.
# TEST_PROTOCOL: amyloid nucleation score (Sup35N fusion, yeast selection) (log enrichment); library NNK3; higher = more nucleation; inactive = no reads after selection;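 note: zero at mode of non-aggregating sequences after 7 days selection at 30°C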
Number only, please.

Below, 2 sequences whose answers are already recorded.
MACROMOLECULE_SEQUENCE | amyloid nucleation score
SSFSFYYDFIHS | -0.433
LASIHCVHLMRTYVRVQPPM | 0.87

// below: amyloid nucleation score requested for another sequence
Incoming: Returns the measured amyloid nucleation score for the input sequence. Input: VNRNVLTVSGCCLVYAPLC
Outgoing: 2.26

====

# TEST_PROTOCOL: amyloid nucleation score (Sup35N fusion, yeast selection) (log enrichment); library NNK1; higher = more nucleation; inactive = no reads after selection
Entries and their amyloid nucleation score values follow.
Returns: the value as a bare number; no unit string appended.

Reference set, count: 3
SUBSTANCE | TEST_VALUE
GFFLVLYHCFYWISRVR | 0.737
VSVFCTSFWASTKLYWTVSE | -0.351
CYYLFLHSCSYARGIFC | -0.366

Incoming: Quick one: amyloid nucleation score for IVTRWY ?
Outgoing: -0.257

Incoming: Recorded amyloid nucleation score of WRRNGNAGMSNQCWVRVKFK , please.
Outgoing: 0.775
